Please respond with reported IC50 for every item in the list.
# Tested on: MCF7
# procedureSummary: Cytotoxicity against human MCF7 cells after 24 hrs by MTT assay
# Format: functional, cell-based
# runParameters: Homo sapiens, MCF7, 24 h; read-out: IC50
// units = µM; emit number, no label

Memo: "Cc1cc(O)c(C(=O)/C=C/c2ccc(Cl)cc2)c(-c2ccc(Br)cc2)c1C(=O)/C=C/c1ccc(Cl)cc1" , reported IC50: 20

Memo: "Cc1cc(O)c(C(=O)/C=C/c2ccc(OCc3ccccc3)cc2)c(-c2ccccc2)c1C(=O)/C=C/c1ccc(OCc2ccccc2)cc1" , reported IC50: 10

Memo: "Cc1cc(O)c(C(=O)/C=C/c2ccc(F)cc2)c(-c2ccc(OCc3ccccc3)cc2)c1C(=O)/C=C/c1ccc(F)cc1" , reported IC50: 28

Reference source: ChEMBL document CHEMBL1177648
